Target: UniProt:Q62053
Experiment: Effective concentration which increases intracellular c-AMP production in mouse Prostanoid EP2 receptor
Format: functional, cell-based
OBSERVED_PROPERTY: EC50 (nM)
Give a bare numeral; the unit nM is implied.

Here is how some molecules turned out for EC50.
SMILES_DATA	EC50 (nM)
CCC1([C@@H](O)C/C=C/[C@@H]2[C@@H](C/C=C\CCCC(=O)O)CC[C@H]2O)CCC1	1400
CCCCC1([C@@H](O)C/C=C/[C@H]2[C@H](O)CC(=O)[C@@H]2C/C=C\CCCC(=O)O)CCC1	71

Please examine the following record next.
Notebook: pull reported EC50 for UniProt:Q62053, entry CCC1([C@@H](O)C/C=C/[C@@H]2[C@@H](C/C=C\CCCC(=O)O)[C@@H](Cl)C[C@H]2O)CCC1
39

====

Molecular target: Prostaglandin E2 receptor EP2 subtype (Homo sapiens, UniProt P43116)
Sequence (P43116 whole entry): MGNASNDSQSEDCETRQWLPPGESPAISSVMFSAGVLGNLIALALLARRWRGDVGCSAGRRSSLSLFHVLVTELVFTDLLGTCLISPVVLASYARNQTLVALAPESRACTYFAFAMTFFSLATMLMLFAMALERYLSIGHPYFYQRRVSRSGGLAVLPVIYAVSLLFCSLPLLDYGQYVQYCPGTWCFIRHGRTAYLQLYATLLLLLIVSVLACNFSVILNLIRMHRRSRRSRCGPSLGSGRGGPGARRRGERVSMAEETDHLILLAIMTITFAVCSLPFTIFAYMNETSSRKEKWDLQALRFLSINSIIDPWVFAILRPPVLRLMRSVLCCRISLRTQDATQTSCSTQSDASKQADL
Assay: Compound was evaluated for its competitive binding affinity towards human Prostanoid EP2 receptor in CHO cells expressing prostanoid receptor
OBSERVED_PROPERTY: pKi
# pKi: negative log10 of molar concentration; output just the value

Sample CCC1([C@@H](O)C/C=C/[C@@H]2[C@@H](C/C=C\CCCC(=O)O)[C@H](Cl)C[C@H]2O)CCC1 — what was its pKi?
9.13

====

Molecular target: Prostaglandin E2 receptor EP3 subtype (Mus musculus, UniProt P30557)
Sequence (P30557 whole entry): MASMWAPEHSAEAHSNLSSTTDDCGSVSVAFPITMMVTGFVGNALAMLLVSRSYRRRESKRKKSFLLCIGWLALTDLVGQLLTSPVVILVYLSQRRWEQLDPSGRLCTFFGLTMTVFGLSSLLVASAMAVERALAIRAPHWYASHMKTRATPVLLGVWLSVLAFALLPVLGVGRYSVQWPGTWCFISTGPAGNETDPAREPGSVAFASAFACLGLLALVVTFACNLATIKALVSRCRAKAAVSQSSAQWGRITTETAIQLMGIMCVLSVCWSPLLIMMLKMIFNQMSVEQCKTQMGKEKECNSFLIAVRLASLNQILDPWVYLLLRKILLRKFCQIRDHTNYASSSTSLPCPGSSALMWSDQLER
Experiment: Binding affinity towards mouse Prostanoid EP3 receptor in CHO cells.
Assay type: cell-based
// reported Ki for each item listed

Here is how some compounds turned out for Ki.
COMPOUND	TARGET_DESC	Ki
CCCC1([C@@H](O)C/C=C/C2[C@H](O)CC(=O)[C@@H]2CCCCCCC(=O)OC)CCC1 (some centres not stated)	Prostaglandin E2 receptor EP3 subtype (Mus musculus, UniProt P30557)	> 10000 nM
CCCCCC1([C@@H](O)C/C=C/[C@H]2[C@H](O)CC(=O)[C@@H]2C/C=C\CCCC(=O)O)CCC1	Prostaglandin E2 receptor EP3 subtype (Mus musculus, UniProt P30557)	830 nM
CCCCC[C@@H](O)/C=C/[C@H]1[C@H](O)CC(=O)[C@@H]1C/C=C\CCCC(=O)O	Prostaglandin E2 receptor EP3 subtype (Mus musculus, UniProt P30557)	5 nM
CCC1([C@@H](O)C/C=C/[C@@H]2[C@@H](C/C=C\CCCC(=O)O)CC[C@H]2O)CCC1	Prostaglandin E2 receptor EP3 subtype (Mus musculus, UniProt P30557)	> 10000 nM
CCC1([C@@H](O)C/C=C/[C@@H]2[C@@H](C/C=C\CCCC(=O)O)[C@H](Cl)C[C@H]2O)CCC1	Prostaglandin E2 receptor EP3 subtype (Mus musculus, UniProt P30557)	> 10000 nM
CCC1([C@@H](O)C/C=C/[C@@H]2[C@@H](C/C=C\CCCC(=O)O)[C@@H](Cl)C[C@H]2O)CCC1	Prostaglandin E2 receptor EP3 subtype (Mus musculus, UniProt P30557)	> 10000 nM

Sample CCCC1([C@@H](O)C/C=C/[C@H]2[C@H](O)CC(=O)[C@@H]2C/C=C\CCCC(=O)O)CCC1 — what was its Ki?
1200 nM

====

Target: Prostaglandin E2 receptor EP2 subtype (Mus musculus, UniProt Q62053)
Sequence (Q62053 whole entry): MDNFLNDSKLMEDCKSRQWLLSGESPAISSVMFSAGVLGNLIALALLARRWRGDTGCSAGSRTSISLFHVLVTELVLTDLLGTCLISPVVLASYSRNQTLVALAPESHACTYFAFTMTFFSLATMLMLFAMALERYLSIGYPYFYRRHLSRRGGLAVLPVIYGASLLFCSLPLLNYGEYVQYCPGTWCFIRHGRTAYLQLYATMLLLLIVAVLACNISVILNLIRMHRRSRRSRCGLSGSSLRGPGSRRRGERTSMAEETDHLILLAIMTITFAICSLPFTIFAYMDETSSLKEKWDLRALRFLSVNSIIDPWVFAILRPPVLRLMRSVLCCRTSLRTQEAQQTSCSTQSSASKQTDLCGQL
Experiment: Effective concentration which increases intracellular c-AMP production in mouse Prostanoid EP2 receptor
Assay type: functional, cell-based
// reported EC50 for each item listed
Give a bare numeral; the unit µM is implied.

Here is how some compounds turned out for EC50.
COMPOUND	UNIT_TEXT	EXPERIMENTAL_VALUE
CCCC1([C@@H](O)C/C=C/C2[C@H](O)CC(=O)[C@@H]2CCCCCCC(=O)O)CCC1 (stereo partly drawn)	µM	0.032
CC(C)CC1([C@@H](O)C/C=C/[C@H]2[C@H](O)CC(=O)[C@@H]2C/C=C\CCCC(=O)O)CCC1	µM	0.045
CCCC1([C@@H](O)C/C=C/[C@H]2[C@H](O)CC(=O)[C@@H]2C/C=C\CCCC(=O)O)CCCC1	µM	0.58
CCCCCC1([C@@H](O)C/C=C/[C@H]2[C@H](O)CC(=O)[C@@H]2C/C=C\CCCC(=O)O)CCC1	µM	0.13
CCCC1([C@@H](O)C/C=C/C2[C@H](O)CC(=O)[C@@H]2CCc2ccc(C(=O)O)cc2)CCC1 (stereo partly drawn)	µM	0.054
CCCC1([C@@H](O)C/C=C/[C@H]2[C@H](O)CC(=O)[C@@H]2C/C=C\CCCC(=O)O)CCC1	µM	0.22

Please examine the following record next.
Sample CCCC1([C@@H](O)C/C=C/C2[C@H](O)CC(=O)[C@@H]2C/C=C/CCCC(=O)O)CCC1 (stereo partly drawn) — what was its EC50?
0.043

====

Target: Prostaglandin E2 receptor EP1 subtype (Mus musculus, UniProt P35375)
Sequence (P35375 whole entry): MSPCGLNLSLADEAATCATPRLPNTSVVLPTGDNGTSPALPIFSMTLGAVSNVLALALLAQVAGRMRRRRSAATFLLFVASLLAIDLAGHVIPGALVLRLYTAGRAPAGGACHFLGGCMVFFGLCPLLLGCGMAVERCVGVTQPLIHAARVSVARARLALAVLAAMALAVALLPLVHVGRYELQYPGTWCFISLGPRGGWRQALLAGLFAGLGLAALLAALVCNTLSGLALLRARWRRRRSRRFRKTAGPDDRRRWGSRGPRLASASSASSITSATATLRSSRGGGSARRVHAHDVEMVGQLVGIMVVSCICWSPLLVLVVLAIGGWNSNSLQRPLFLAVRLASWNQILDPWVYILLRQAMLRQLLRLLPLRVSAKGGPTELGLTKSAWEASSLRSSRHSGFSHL
Assay: Binding affinity towards mouse Prostanoid EP1 receptor in CHO cells.
// reported Ki for each item listed
Give a bare numeral; the unit µM is implied.

Here is how some compounds turned out for Ki.
SMILES_DATA	Ki (µM)
CCC1([C@@H](O)C/C=C/[C@@H]2[C@@H](C/C=C\CCCC(=O)O)[C@H](Cl)C[C@H]2O)CCC1	3.4
CCCCC1([C@@H](O)C/C=C/[C@H]2[C@H](O)CC(=O)[C@@H]2C/C=C\CCCC(=O)O)CCC1	0.78

Sample CCCCC[C@@H](O)/C=C/[C@H]1[C@H](O)CC(=O)[C@@H]1C/C=C\CCCC(=O)O — what was its Ki?
0.018

For CCC1([C@@H](O)C/C=C/[C@@H]2[C@@H](C/C=C\CCCC(=O)O)CC[C@H]2O)CCC1 then?
5.1

====

Molecular target: Prostacyclin receptor (Homo sapiens, UniProt P43119)
Sequence (P43119 whole entry): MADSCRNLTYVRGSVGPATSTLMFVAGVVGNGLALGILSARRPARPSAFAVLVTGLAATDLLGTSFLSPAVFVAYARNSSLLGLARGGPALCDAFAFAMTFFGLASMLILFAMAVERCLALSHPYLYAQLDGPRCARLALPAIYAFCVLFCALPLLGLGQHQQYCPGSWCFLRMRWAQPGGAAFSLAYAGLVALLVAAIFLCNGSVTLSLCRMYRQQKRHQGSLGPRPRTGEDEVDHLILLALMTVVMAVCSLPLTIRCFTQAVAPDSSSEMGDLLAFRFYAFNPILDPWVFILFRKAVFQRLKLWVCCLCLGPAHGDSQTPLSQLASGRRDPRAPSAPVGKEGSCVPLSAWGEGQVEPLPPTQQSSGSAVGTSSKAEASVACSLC
Test: Binding affinity towards human Prostanoid IP receptor in CHO cells.
pKi: −log10 of the molar value.
// reported pKi for each item listed

Here is how some molecules turned out for pKi.
MOLECULE	OBSERVED_PROPERTY	EXPERIMENTAL_VALUE
CCCCCC(O)/C=C/[C@H]1[C@H](O)CC(=O)[C@@H]1CCCCCCC(=O)O (single isomer, unassigned)	pKi	6.82
CCCCCC1([C@@H](O)C/C=C/[C@H]2[C@H](O)CC(=O)[C@@H]2C/C=C\CCCC(=O)O)CCC1	pKi	< 5.00
CC(C)CC1([C@@H](O)C/C=C/[C@H]2[C@H](O)CC(=O)[C@@H]2C/C=C\CCCC(=O)O)CCC1	pKi	< 5.00
CCCC1([C@@H](O)C/C=C/C2[C@H](O)CC(=O)[C@@H]2CCCCCCC(=O)O)CCC1 (stereo partly drawn)	pKi	6.06
CCC1([C@@H](O)C/C=C/[C@@H]2[C@@H](C/C=C\CCCC(=O)O)CC[C@H]2O)CCC1	pKi	< 5.00
CCCC1([C@@H](O)C/C=C/[C@H]2[C@H](O)CC(=O)[C@@H]2C/C=C\CCCC(=O)O)CCCC1	pKi	< 5.00

Notebook: pull reported pKi for Prostacyclin receptor (Homo sapiens, UniProt P43119), entry CCCCC[C@@H](O)/C=C/[C@H]1[C@H](O)CC(=O)[C@@H]1C/C=C\CCCC(=O)O
< 5.00

For CCC1([C@@H](O)C/C=C/[C@@H]2[C@@H](C/C=C\CCCC(=O)O)[C@H](Cl)C[C@H]2O)CCC1 then?
< 5.00

====

Target: Prostacyclin receptor (Homo sapiens)
Assay: Effective concentration which increases intracellular c-AMP production in human Prostanoid IP receptor
OBSERVED_PROPERTY: pEC50
# pEC50: negative log10 of molar concentration; output just the value

Sample CCCC1([C@@H](O)C/C=C/C2[C@H](O)CC(=O)[C@@H]2CCCCCCC(=O)O)CCC1 (stereo partly specified) — what was its pEC50?
7.60

For CCCCCC(O)/C=C/[C@H]1[C@H](O)CC(=O)[C@@H]1CCCCCCC(=O)O (single isomer, unassigned) then?
8.74

For CCCCC[C@@H](O)/C=C/[C@H]1[C@H](O)CC(=O)[C@@H]1C/C=C\CCCC(=O)O then?
6.59

For CCCC1([C@@H](O)C/C=C/C2[C@H](O)CC(=O)[C@@H]2CCCCCCC(=O)OC)CCC1 (stereo partly specified) then?
7.43
